Quick list: log10 EC50 per entry.
experimental.target: UniProt:O75469
Sequence (O75469 1-434): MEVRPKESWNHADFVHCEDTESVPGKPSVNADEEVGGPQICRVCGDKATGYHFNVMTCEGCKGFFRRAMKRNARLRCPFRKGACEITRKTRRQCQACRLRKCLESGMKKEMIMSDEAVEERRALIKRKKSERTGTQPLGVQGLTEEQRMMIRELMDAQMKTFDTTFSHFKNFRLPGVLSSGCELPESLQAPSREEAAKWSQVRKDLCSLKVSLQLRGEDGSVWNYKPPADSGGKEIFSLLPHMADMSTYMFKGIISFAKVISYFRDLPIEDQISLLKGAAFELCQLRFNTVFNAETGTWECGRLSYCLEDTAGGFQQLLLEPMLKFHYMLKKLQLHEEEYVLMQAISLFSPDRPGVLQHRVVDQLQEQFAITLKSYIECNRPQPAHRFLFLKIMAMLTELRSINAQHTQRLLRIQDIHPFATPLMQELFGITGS
Sequence (P19793 1-462 partner): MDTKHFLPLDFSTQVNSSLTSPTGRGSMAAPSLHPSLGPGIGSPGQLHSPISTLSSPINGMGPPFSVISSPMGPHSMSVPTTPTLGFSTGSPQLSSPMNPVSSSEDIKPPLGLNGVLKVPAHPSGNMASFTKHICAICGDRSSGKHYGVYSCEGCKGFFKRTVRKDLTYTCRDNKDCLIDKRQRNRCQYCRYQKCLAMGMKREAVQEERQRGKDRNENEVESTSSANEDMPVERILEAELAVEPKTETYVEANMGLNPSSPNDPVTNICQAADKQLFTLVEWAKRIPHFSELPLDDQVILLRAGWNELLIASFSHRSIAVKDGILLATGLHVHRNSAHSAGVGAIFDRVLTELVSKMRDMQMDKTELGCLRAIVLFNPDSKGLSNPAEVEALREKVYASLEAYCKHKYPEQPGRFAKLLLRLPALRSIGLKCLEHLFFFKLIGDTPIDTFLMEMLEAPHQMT
measurement.description: PXR assay (CYP3A4-SEAP transactivation assay, PCSTA)
condition: HEP G2 cells
quantity.measured: log10 EC50 (log10 of the value in µM)

{"columns": ["molecule", "measured.number"],
 "data": [
  ["O=S(=O)(N[C@H]1C[C@@](c2cc(Cl)ccc2Cl)(S(=O)(=O)c2ccc(Cl)cc2)C1)C(F)(F)F [Example 4]", 0.29],
  ["O=S(=O)([N-][C@H]1C[C@@](c2cc(F)ccc2F)(S(=O)(=O)c2ccc(Cl)cc2)C1)C(F)(F)F.[Na+] [Example 20]", 0.46],
  ["O=S(=O)(NC1CC(c2cc(F)ccc2F)(S(=O)(=O)c2ccc(F)cc2)C1)C(F)(F)F (stereo not drawn) [Example 7]", -0.12],
  ["O=S(=O)(N[C@H]1C[C@](c2cc(F)ccc2F)(S(=O)(=O)c2ccc(Cl)cc2)C1)C(F)(F)F [Example 1]", 0.09],
  ["O=S(=O)(N([C@H]1C[C@@](c2cc(F)ccc2F)(S(=O)(=O)c2ccc(Cl)cc2)C1)S(=O)(=O)C(F)(F)F)C(F)(F)F [Example 19]", 0.10],
  ["O=S(=O)(N(CCOC1CCCCO1)[C@H]1C[C@@](c2cc(F)ccc2F)(S(=O)(=O)c2ccc(Cl)cc2)C1)C(F)(F)F (stereo partly drawn) [Example 11]", -0.08],
  ["O=S(=O)(NC1CC(c2cc(Cl)ccc2F)(S(=O)(=O)c2ccc(Cl)cc2)C1)C(F)(F)F (stereo not drawn) [Example 6]", 0.30],
  ["O=S(=O)(NC1CCC(c2cc(F)ccc2F)(S(=O)(=O)c2ccc(Cl)cc2)CC1)C(F)(F)F (stereo not drawn) [MRK-560]", -0.21],
  ["O=S(=O)(N[C@H]1C[C@@](c2cc(F)ccc2F)(S(=O)(=O)c2ccc(OC(F)(F)F)cc2)C1)C(F)(F)F [Example 22]", 0.98],
  ["COC(=O)CN([C@H]1C[C@@](c2cc(F)ccc2F)(S(=O)(=O)c2ccc(Cl)cc2)C1)S(=O)(=O)C(F)(F)F [Example 12]", 0.20],
  ["N#Cc1ccc(S(=O)(=O)C2(c3cc(F)ccc3F)CC(NS(=O)(=O)C(F)(F)F)C2)cc1 (stereo not drawn) [Example 9]", 0.92],
  ["C[C@]1(NS(=O)(=O)C(F)(F)F)C[C@@](c2cc(F)ccc2F)(S(=O)(=O)c2ccc(Cl)cc2)C1 [Example 17]", -0.07]
]}

----------
Quick list: pEC50 per entry.
experimental.target: pregnane X receptor (PXR) (Homo sapiens, UniProt O75469)
measurement.description: PXR assay (CYP3A4-SEAP transactivation assay, PCSTA)
condition: HEP G2 cells
pEC50: −log10 of the molar value.
quantity.measured: pEC50

{"columns": ["compound", "quantity.measured", "measured.number"],
 "data": [
  ["CN(C1CC(c2cc(F)ccc2F)(S(=O)(=O)c2ccc(Cl)cc2)C1)S(=O)(=O)C(F)(F)F (stereo not shown) [Example 14]", "pEC50", 6.08],
  ["CC1(NS(=O)(=O)C(F)(F)F)CC(c2cc(F)ccc2F)(S(=O)(=O)c2ccc(C(F)(F)F)cc2)C1 (stereo not shown)", "pEC50", 5.51],
  ["O=C(O)CN([C@H]1C[C@@](c2cc(F)ccc2F)(S(=O)(=O)c2ccc(Cl)cc2)C1)S(=O)(=O)C(F)(F)F", "pEC50", 6.00],
  ["O=C(O)CCCN([C@H]1C[C@@](c2cc(F)ccc2F)(S(=O)(=O)c2ccc(Cl)cc2)C1)S(=O)(=O)C(F)(F)F", "pEC50", 5.91]
]}

----------
experimental.target: pregnane X receptor (PXR) (Homo sapiens, UniProt O75469)
Construct: expressed in transfected cells; host or cells: HEP G2
Sequence (O75469 1-434): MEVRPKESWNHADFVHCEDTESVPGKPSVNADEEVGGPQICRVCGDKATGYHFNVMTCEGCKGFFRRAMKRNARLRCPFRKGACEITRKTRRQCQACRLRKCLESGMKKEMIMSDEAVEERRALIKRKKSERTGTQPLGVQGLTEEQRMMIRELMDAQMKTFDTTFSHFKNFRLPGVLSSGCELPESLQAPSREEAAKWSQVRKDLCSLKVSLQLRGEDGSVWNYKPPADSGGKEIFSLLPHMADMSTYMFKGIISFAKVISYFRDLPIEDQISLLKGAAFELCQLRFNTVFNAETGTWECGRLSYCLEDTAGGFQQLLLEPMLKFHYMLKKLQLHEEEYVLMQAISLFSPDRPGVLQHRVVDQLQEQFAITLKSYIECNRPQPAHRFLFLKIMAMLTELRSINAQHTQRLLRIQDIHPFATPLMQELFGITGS
Sequence (P19793 1-462 partner): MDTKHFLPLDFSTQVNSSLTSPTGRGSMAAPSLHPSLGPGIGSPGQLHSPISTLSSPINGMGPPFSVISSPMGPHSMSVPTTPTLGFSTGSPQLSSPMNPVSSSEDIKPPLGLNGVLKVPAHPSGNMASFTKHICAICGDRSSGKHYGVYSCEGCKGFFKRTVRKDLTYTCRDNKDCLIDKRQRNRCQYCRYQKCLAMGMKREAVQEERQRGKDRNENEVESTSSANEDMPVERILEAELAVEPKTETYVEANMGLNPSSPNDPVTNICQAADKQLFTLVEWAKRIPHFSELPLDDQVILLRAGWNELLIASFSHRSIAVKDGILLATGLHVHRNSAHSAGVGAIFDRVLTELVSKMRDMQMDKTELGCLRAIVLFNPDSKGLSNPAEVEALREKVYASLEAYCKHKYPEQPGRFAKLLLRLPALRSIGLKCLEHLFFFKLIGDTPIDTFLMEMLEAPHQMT
measurement.description: PXR assay (CYP3A4-SEAP transactivation assay, PCSTA)
Type: cell-based
condition: 10 uM
Quick list: PXR % Activation @ 10 uM per entry.

{"columns": ["molecule", "PXR % Activation @ 10 uM [%]"],
 "data": [
  ["O=S(=O)([N-][C@H]1C[C@@](c2cc(F)ccc2F)(S(=O)(=O)c2ccc(Cl)cc2)C1)C(F)(F)F.[Na+] [Example 20]", 71.9],
  ["O=S(=O)(NC1CC(c2cc(Cl)ccc2F)(S(=O)(=O)c2ccc(Cl)cc2)C1)C(F)(F)F (stereo not drawn) [Example 6]", 79.2],
  ["O=S(=O)(N[C@H]1C[C@@](c2cc(Cl)ccc2Cl)(S(=O)(=O)c2ccc(Cl)cc2)C1)C(F)(F)F [Example 4]", 70.7]
]}

----------
System: Aβ42 peptides generated from SH-SY5Y cells expressing amyloid β protein (SP4CT cells)
measurement.description: APP processing AlphaLisa assay, secreted Aβ42
Format: cell-based
condition: average of at least >4 replicates, read-out: AB42 IC50 AVG
Quick list: IC50 per entry.

{"columns": ["compound", "IC50"],
 "data": [
  ["O=S(=O)([N-][C@H]1C[C@@](c2cc(F)ccc2F)(S(=O)(=O)c2ccc(Cl)cc2)C1)C(F)(F)F.[Na+] [Example 20]", "53.2 nM"],
  ["O=S(=O)([N-][C@H]1C[C@@](c2cc(F)ccc2F)(S(=O)(=O)c2ccc(Cl)cc2)C1)C(F)(F)F.[K+] [Example 21]", "70.9 nM"],
  ["CN(C1CC(c2cc(F)ccc2F)(S(=O)(=O)c2ccc(Cl)cc2)C1)S(=O)(=O)C(F)(F)F (stereo not shown) [Example 13]", "18.9 nM"],
  ["CN(C1CC(c2cc(F)ccc2F)(S(=O)(=O)c2ccc(Cl)cc2)C1)S(=O)(=O)C(F)(F)F (stereo not shown) [Example 14]", "97.1 nM"]
]}
